- system_name: T1, cynomolgus monkey B7-H4 on the cell surface (cynomolgus monkey, UniProt Q7Z7D3 25-282 (human entry))
- T1 construct: full-length, on transfected HEK293T cells
- T1 chain: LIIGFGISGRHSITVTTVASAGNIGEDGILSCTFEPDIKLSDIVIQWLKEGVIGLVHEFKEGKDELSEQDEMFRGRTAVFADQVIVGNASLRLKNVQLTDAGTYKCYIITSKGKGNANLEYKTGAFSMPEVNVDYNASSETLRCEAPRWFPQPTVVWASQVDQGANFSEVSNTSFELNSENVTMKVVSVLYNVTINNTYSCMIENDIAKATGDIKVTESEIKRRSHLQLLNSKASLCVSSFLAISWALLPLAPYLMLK
- procedure_details: flow cytometry, 100 nM, transfected HEK293T
readout_type: FOP (fold binding over the parental cell line) (fold)
Numbers only here, please. The scale is fold.

FOP (fold binding over the parental cell line) measured on B7-H4 antibody 20496 (antibody, human IgG1, kappa, V domains shown, human IgG1/kappa) VH: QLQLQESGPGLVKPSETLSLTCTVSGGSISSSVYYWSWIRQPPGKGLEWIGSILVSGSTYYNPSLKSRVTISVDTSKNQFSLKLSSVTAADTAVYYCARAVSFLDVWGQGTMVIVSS VL: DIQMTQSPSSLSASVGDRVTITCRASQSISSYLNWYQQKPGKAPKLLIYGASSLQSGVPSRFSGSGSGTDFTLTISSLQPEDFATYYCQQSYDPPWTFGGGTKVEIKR = 758

FOP (fold binding over the parental cell line) measured on B7-H4 antibody 20500 (antibody, human IgG1, kappa, V domains shown, human IgG1/kappa) VH: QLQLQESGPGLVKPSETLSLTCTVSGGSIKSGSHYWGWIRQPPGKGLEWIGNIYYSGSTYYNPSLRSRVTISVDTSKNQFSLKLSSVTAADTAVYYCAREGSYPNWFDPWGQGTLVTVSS VL: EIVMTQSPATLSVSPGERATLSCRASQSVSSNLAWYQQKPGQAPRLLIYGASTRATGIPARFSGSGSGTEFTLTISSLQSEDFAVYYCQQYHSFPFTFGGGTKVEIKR = 630

These measurements were taken from patent US20240043542A1.
